- assay_target: PtxD (Stutzerimonas stutzeri)
- Sequence (O69054 1-336): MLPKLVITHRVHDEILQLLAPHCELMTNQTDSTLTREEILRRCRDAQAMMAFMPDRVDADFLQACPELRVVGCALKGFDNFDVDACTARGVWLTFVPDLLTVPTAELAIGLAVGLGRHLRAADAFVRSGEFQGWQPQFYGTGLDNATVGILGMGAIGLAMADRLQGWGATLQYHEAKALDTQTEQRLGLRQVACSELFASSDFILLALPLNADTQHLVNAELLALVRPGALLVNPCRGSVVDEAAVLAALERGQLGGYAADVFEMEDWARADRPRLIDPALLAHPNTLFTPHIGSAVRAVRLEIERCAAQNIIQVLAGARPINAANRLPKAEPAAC
- assay_overview: Initial rate studies of PtxD in the presence of products (NADH, phosphate) and dead end inhibitor sulfite
- Assay type: biochemical, Pseudomonas stutzeri WM88
- Parameters: made in house
- run_conditions: Kis with respect to phosphite
reported_metric: Ki (µM)

> print(dat)
            compound                   assay.target  reported.metric  unit.spec  quantitative.result
1  O=S(O)O [Sulfite]  PtxD (Stutzerimonas stutzeri)               Ki         µM                 16.1

###

- assay_target: UniProtKB O69054
- assay_overview: Initial rate studies of PtxD in the presence of products (NADH, phosphate) and dead end inhibitor sulfite
- Format: biochemical, Pseudomonas stutzeri WM88
- Parameters: made in house
- run_conditions: Kis with respect to NAD
reported_metric: Ki (µM)

> print(dat)
   chem.smiles  quantitative.result
1      O=S(O)O                 10.8

###

- assay_target: PtxD (Stutzerimonas stutzeri, UniProt O69054)
- Assay type: biochemical, Pseudomonas stutzeri WM88
- Parameters: made in house

compound	assay_target	inhibitory activity on PtxD, in words
NC(=O)c1ccc[n+]([C@@H]2O[C@H](COP(=O)([O-])OP(=O)(O)OC[C@H]3O[C@@H](n4cnc5c(N)ncnc54)[C@H](OP(=O)(O)O)[C@@H]3O)[C@@H](O)[C@H]2O)c1 [NADP]	PtxD (Stutzerimonas stutzeri, UniProt O69054)	weak enzyme inhibitors
O=NO [Nitrite]	PtxD (Stutzerimonas stutzeri, UniProt O69054)	moderately inhibited
Nc1ncnc2c1ncn2[C@@H]1O[C@H](COP(=O)(O)OP(=O)(O)OP(=O)(O)O)[C@@H](O)[C@H]1O [ATP]	PtxD (Stutzerimonas stutzeri, UniProt O69054)	weak enzyme inhibitors
CC(C)CC(O)C(=O)O (racemic) [DL-Hydroxyisocaproate]	PtxD (Stutzerimonas stutzeri, UniProt O69054)	moderately inhibited
Nc1ncnc2c1ncn2[C@@H]1O[C@H](COP(=O)(O)OP(=O)(O)OC[C@H]2OC(O)[C@H](O)[C@@H]2O)[C@@H](O)[C@H]1O (stereo partly drawn) [ADPR, ADP-ribose]	PtxD (Stutzerimonas stutzeri, UniProt O69054)	weak enzyme inhibitors
O=C(O)[C@H](O)CO [D-Glycerate]	PtxD (Stutzerimonas stutzeri, UniProt O69054)	moderately inhibited
Nc1ncnc2c1ncn2[C@@H]1O[C@H](COP(=O)(O)OP(=O)(O)O)[C@@H](O)[C@H]1O [ADP]	PtxD (Stutzerimonas stutzeri, UniProt O69054)	weak enzyme inhibitors

###

- assay_target: PtxD (Stutzerimonas stutzeri, UniProt O69054)
- Sequence (O69054 1-336): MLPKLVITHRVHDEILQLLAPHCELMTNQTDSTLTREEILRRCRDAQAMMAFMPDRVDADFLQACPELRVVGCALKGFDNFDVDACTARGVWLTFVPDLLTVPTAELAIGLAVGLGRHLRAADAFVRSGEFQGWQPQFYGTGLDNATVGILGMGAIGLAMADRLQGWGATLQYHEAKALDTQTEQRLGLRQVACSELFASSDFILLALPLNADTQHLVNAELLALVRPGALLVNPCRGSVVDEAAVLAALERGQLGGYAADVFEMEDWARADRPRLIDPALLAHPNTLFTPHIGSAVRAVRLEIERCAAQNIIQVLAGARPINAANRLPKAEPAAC
- assay_overview: Initial rate studies of PtxD in the presence of products (NADH, phosphate) and dead end inhibitor sulfite
- Assay type: biochemical, Pseudomonas stutzeri WM88
- Set-up: made in house
- run_conditions: Ki, inhibition of PtxD
pKi: −log10 of the molar value.
reported_metric: pKi

chem_smiles	reported_metric	quantitative_result
NC(=O)c1ccc[n+]([C@@H]2O[C@H](COP(=O)([O-])OP(=O)(O)OC[C@H]3O[C@@H](n4cnc5c(N)ncnc54)[C@H](O)[C@@H]3O)[C@@H](O)[C@H]2O)c1	pKi	3.65
